System: M. tuberculosis strains H37Rv
protocol_description: microbe, parasite or virus in culture
Format: cell-based
experimental_context: Mycobacterium tuberculosis, read-out: minimum inhibitory concentration (MIC)

{"compound": "[H]/N=C(/N)N[C@H]1[C@H](O)[C@@H](O)[C@H](O[C@@H]2O[C@@H](C)[C@](O)(C=O)[C@H]2O[C@@H]2O[C@@H](CO)[C@H](O)[C@@H](O)[C@@H]2NC)[C@@H](N/C(N)=N\\[H])[C@@H]1O [Streptomycin]", "qualifier": "<", "MIC (µg/mL)": 0.5}
{"compound": "CC[C@@H](CO)NCCN[C@@H](CC)CO [Ethambutol]", "qualifier": "=", "MIC (µg/mL)": 2}
{"compound": "CO[C@H]1/C=C/O[C@@]2(C)Oc3c(C)c(O)c4c(O)c(c(/C=N/N5CCN(C)CC5)c(O)c4c3C2=O)NC(=O)/C(C)=C\\C=C\\[C@H](C)[C@H](O)[C@@H](C)[C@@H](O)[C@@H](C)[C@H](OC(C)=O)[C@@H]1C [Rifampicin]", "qualifier": "<", "MIC (µg/mL)": 0.004}
{"compound": "NNC(=O)c1ccncc1 [Isoniazid]", "qualifier": "=", "MIC (µg/mL)": 0.5}
